Data origin, for the record: patent US20200223906A1

Biological target: RSV F protein of subtype B (18537) on recombinant mKate-RSV virus (Respiratory syncytial virus subtype B …, UniProt P13843 26-574)
Experiment: cell-based or functional assay
Measured Neut IC50 (µg/ml) subtype B by item
Note: unit µg/mL is implicit; provide only the numeric part.

ADI-18940 (antibody, V domains shown, full-length IgG from yeast) VH: QVQLVQSGAGVKKPGASVRVSCTASGYTFTDYFINWVRQAPGGGLEWMGWVNPLSGATRYAQNFAGRVTMTTDTSITTGYLDLRNLRLDDTAVYFCASQSSPYTPGAMDVWGQGTTVTVSS VL: DIVMTQSPSSLSASVGDRVSITCRTSQTISGYISWYQKKPGKAPKLLIYAASNMYSGVPSRFSGSESGTDFTLTITSLQPEDFATYFCQLNSGALFTFGPGTKVDIK = 0.063
ADI-18974 (antibody, V domains shown, full-length IgG from yeast) VH: QVQLVQSGPEVKKPGASVRVSCEASGYPFSNYGITWVRQAPGQGLEWMGWISAYNGNRDYLQKFQGRLTMTIDTSTRTAHMELRRLTSDDTAVYWCARDTPATAAPLLDYWGQGTLVTVSS VL: DIVMTQSPLSLAVTLGQPASISCRSSQSLEFTDGNTYLNWFQQRPGQSPRRLIYKVSNRDSGVPDRFSGSGSGTGFTLKISRVEAEDVGVYYCMQGIFRPGTFGQGTKVEIK = 0.105
ADI-18904 (antibody, V domains shown, full-length IgG from yeast; also called Antibody Number 259; Ab # 259) VH: EVQLVESGSEVKKPGAAVKVSCKASGYIFANFGVSWVRQAPGQGLEWMGWISAYNGNTNYAQKFQGRVIMTTDTSTSTAYMELRSLRSDDTAVYYCARDPPAYAATLMDVWGKGTTVTVSS VL: DIVMTQSPLSLPVTLGQSASISCRSSQSLEHSDTNTYLTWYQQRPGQSPRRLLYKVSNRDSGVPDRFSGSGSGTDFTLKISRVEAEDVGVYYCMQGTHWPPTFGQGTKLEIK = 0.089
ADI-18915 (antibody, V domains shown, full-length IgG from yeast; also called Antibody Number 269; Ab # 269) VH: QVQLVQSGGGLVKPGGSLRLSCAASGFTFSKAWMNWVRQAPGKGLEWVGRIRSKTDGGTADYAAPVKGRFTMSRDDSKNTLYLQMNSLKTEDTAVYYCATDSRRLYDSRGFYSSAFDVWGQGTTVTVSS VL: QSVLTQPPSVSGAPGQRVTISCTGSSSNIGAGYDVHWYQHLPGTAPKVLIYGNNNRPSGVPDRFSGSKSGTSASLAITGLQAEDEADYYCQSYDDSLTGWVFGGGTKVTVL = 0.021
ADI-18969 (antibody, V domains shown, full-length IgG from yeast; also called Antibody Number 317; Ab # 317) VH: QVQLVQSGPEVKKPGASVTVSCKASGYTFSHYGISWVRQAPGQGLEWMGWISAYHGQTNYAQNFQGRVTMTTDTSSNTAYMEVRSLRSDDTAVYFCARDVFSKTAARIFDYWGQGTLVTVSS VL: EIVLTQSPLSLPVTLGQPASISCRSSQSLEYSDGNTYLSWFQQRPGQSPRRLIYKVSNRDSGVPDRFSGSQSGTDFTLKISRVEAEDVGVYYCMQATDWPVTFGQGTKLEIK = 0.187
ADI-18957 (antibody, V domains shown, full-length IgG from yeast) VH: EVQLLESGGGLVKPGESLRLSCAASGFTLSGYYMNWVRQAPGRGLEWVSSISGGSNYINYADSVKGRFTISRDNAKNSLYLQMNSLRVEDTAVYYCARVHVDLVTTIFGVDFDFWGQGTLVTVSS VL: QSVLTQPPSVSGAPGQRVTISCTGSSSNIGAGYDVHWYQQLPGTAPKLLIYGNTNRPAGVPDRFSGSKSGSSASLAITGLQAEDEADYYCQSYDSSLSGAIFGGGTKLTVL = 6.08

Any idea what Neut IC50 (µg/ml) subtype B was measured for ADI-18966 (antibody, V domains shown, full-length IgG from yeast) VH: QVQLVQSGGGVVQPGRSLRLSCAASGFTFRNYGMHWVRQAPGKGLEWVAAASYDGSSKYFADAVKGRFSISRDNTKNTLSLQMTSLRAEDTAVYYCARDPGVGSYYNVVGMDVWGQGTTVTVSS VL: DIRLTQSPLSLPVTLGQPASISCRSSQSLVYSDGNTYLNWFQQRPGQSPRRLIYRVSHRDSGVPDRFSGSESGTDFTLKISRVEAEDVGVYYCMQGTHWPPTFGQGTKVEIK ? 0.13

What do you have for ADI-18903 (antibody, V domains shown, full-length IgG from yeast) VH: EVQLVESGGEVKKPGASVKVSCRASGYTFRNYGLTWVRQAPGQGLEWMGWISAYNGNTNYAQKFQGRVTLTTDTSTSTAYMELRSLRSDDTAVYFCARDVPGHGAAFMDVWGTGTTVTVSS VL: ETTLTQSPLSLPVTLGQPASISCRSSQSLEASDTNIYLSWFQQRPGQSPRRLIYKISNRDSGVPDRFSGSGSGTHFTLRISRVEADDVAVYYCMQGTHWPPAFGQGTKLEIK ? 0.118

What do you have for ADI-18885 (antibody, V domains shown, full-length IgG from yeast; also called Antibody Number 241; Ab # 241) VH: EVQLQESGPGLVKPLQTLSVTCSVSGGSISSGDNYWSWIRQRPGKGLEWIGYIYYSGTTYYNPSLKSRVTISADRSKNQFSLKMNSLSAADTAVYYCARDGGYDHIWGTHRYFALWGQGTLVTVSS VL: ETTLTQSPGTLSLSPGERATLSCRASQSVNSDYLAWYQQKLGQAPRLLIYGVSNRATGIPDRFTGSGSGTDFTLTISRLEPEDFAVYHCQQYGTSPWTFGQGTKVEIK ? 8.63
